System: Candida albicans
Assay: In vitro Anti-Candida activity, dilutions in Sabouraud's Dextrose Agar (Table III)
Assay type: cell-based
Conditions: 48 h, strain Sherod, after 48 hours
Experimental: All the tests were carried out and (when necessary) scored under standard conditions. "MIC" means "minimum inhibitory concentration." In vitro Anti-Candida Activity of 2-aminoalkyl-3-phenyl- indoles of the formula I. Dilutions in Sabouraud's Dextrose MIC (mcg/ml) after 48 hours
readout: MIC (µg/mL)
Provide only the numeric value, understood in µg/mL.

Entry under review: `NCc1[nH]c2ccc(Cl)cc2c1-c1ccccc1F` . Reported MIC?
75

Subsequent entry: `NCc1[nH]c2ccc(Cl)cc2c1-c1ccccc1`
75

Subsequent entry: `NCc1[nH]c2cc(Br)c(Cl)cc2c1-c1ccccc1`
150

Subsequent entry: `NCc1[nH]c2ccc(Cl)cc2c1-c1ccc(Cl)cc1Cl`
37.5

Subsequent entry: `NCc1[nH]c2ccc(Cl)cc2c1-c1c(F)cccc1F`
150

* * *

Assay: Acute toxicity in mice (Table V)
Conditions: mouse, in vivo, ip, I.P.
Description: All the tests were carried out and (when necessary) scored under standard conditions. "MIC" means "minimum inhibitory concentration." Acute Toxicity of 2-aminoalkyl-3-phenylindoles of the formula I
LD50 by entry:
Answer format reminder: number followed by unit.

>>> df
                          input_smiles  test_result
0      NCc1[nH]c2ccc(Cl)cc2c1-c1ccccc1    100 mg/kg
1     NCc1[nH]c2ccc(Cl)cc2c1-c1ccccc1F    250 mg/kg
2  NCc1[nH]c2ccc(Cl)cc2c1-c1c(F)cccc1F    225 mg/kg
3  NCc1[nH]c2cc(Br)c(Cl)cc2c1-c1ccccc1    175 mg/kg

Entry under review: `NCc1[nH]c2ccc(Cl)cc2c1-c1ccc(Cl)cc1Cl` . Reported LD50?
85 mg/kg

* * *

tested on: Trichophyton discoides
MIC by entry:
Provide only the numeric value, understood in µg/mL.

Worked cases, MIC given:
In [3]: df
Out[3]:
                            input_smiles  test_result
0    NCc1[nH]c2ccc(Cl)cc2c1-c1c(F)cccc1F         17.5
1    NCc1[nH]c2cc(Br)c(Cl)cc2c1-c1ccccc1          7.5
2  NCc1[nH]c2ccc(Cl)cc2c1-c1ccc(Cl)cc1Cl          7.5
3       NCc1[nH]c2ccc(Cl)cc2c1-c1ccccc1F          7.5

Entry under review: `NCc1[nH]c2ccc(Cl)cc2c1-c1ccccc1` . Reported MIC?
17.5

* * *

Tested on: Clostridium histolyticum
Assay: In vitro activity against anaerobes in fluid Thioglycollate medium (Table II)
Assay type: cell-based
Settings: Hathewaya histolytica, 72 hrs
Description: All the tests were carried out and (when necessary) scored under standard conditions. "MIC" means "minimum inhibitory concentration." In vitro activity of 2-aminoalkyl-3-phenylindoles of the formula I against anaerobes in fluid Thioglycollate medium
readout: MIC (µg/mL)
Provide only the numeric value, understood in µg/mL.

                                   molecule  readout  units  test_result
0   NCc1[nH]c2ccc(Cl)cc2c1-c1c(F)cccc1F [B]      MIC  µg/mL          7.5
1  NCc1[nH]c2ccc(Cl)cc2c1-c1ccc(Cl)cc1Cl [E]      MIC  µg/mL          0.3
2       NCc1[nH]c2ccc(Cl)cc2c1-c1ccccc1 [C]      MIC  µg/mL            3
3      NCc1[nH]c2ccc(Cl)cc2c1-c1ccccc1F [A]      MIC  µg/mL          7.5

Which measured MIC belongs to NCc1[nH]c2cc(Br)c(Cl)cc2c1-c1ccccc1 [D] , tested on Clostridium histolyticum?
0.3

* * *

tested on: Candida albicans; experiment: In vitro Anti-Candida activity, dilutions in Sabouraud's Dextrose Agar (Table III); format: cell-based; details: 48 h, strain Burnside, after 48 hours
MIC by entry:

Worked cases, MIC given:
                            input_smiles  readout  test_result
0       NCc1[nH]c2ccc(Cl)cc2c1-c1ccccc1F      MIC      75 mg/L
1  NCc1[nH]c2ccc(Cl)cc2c1-c1ccc(Cl)cc1Cl      MIC    37.5 mg/L
2    NCc1[nH]c2cc(Br)c(Cl)cc2c1-c1ccccc1      MIC      75 mg/L
3        NCc1[nH]c2ccc(Cl)cc2c1-c1ccccc1      MIC      75 mg/L

Attention now shifts to the item below.
Entry under review: `NCc1[nH]c2ccc(Cl)cc2c1-c1c(F)cccc1F` . Reported MIC?
150 mg/L

* * *

tested on: Klebsiella; test: In vitro antibacterial activity, dilution in Mueller Hinton Agar (Table I); type: cell-based; settings: pH 7.4, strain G3694, Mueller Hinton Agar pH 7.4
MIC by entry:
Provide only the numeric value, understood in µg/mL.

Worked cases, MIC given:
>>> df
                          input_smiles  test_result
0  NCc1[nH]c2cc(Br)c(Cl)cc2c1-c1ccccc1            3
1      NCc1[nH]c2ccc(Cl)cc2c1-c1ccccc1            3
2     NCc1[nH]c2ccc(Cl)cc2c1-c1ccccc1F          7.5
3  NCc1[nH]c2ccc(Cl)cc2c1-c1c(F)cccc1F          7.5

Entry under review: `NCc1[nH]c2ccc(Cl)cc2c1-c1ccc(Cl)cc1Cl` . Reported MIC?
3

* * *

system: Candida albicans; test: In vitro Anti-Candida activity, dilutions in Sabouraud's Dextrose Agar (Table III); type: cell-based; conditions: 48 h, strain Tyner, after 48 hours
readout: MIC (µg/mL)
Provide only the numeric value, understood in µg/mL.

Worked cases, MIC given:
>>> print(df.to_string())
                                   compound  units  test_result
0      NCc1[nH]c2ccc(Cl)cc2c1-c1ccccc1F [A]  µg/mL           75
1       NCc1[nH]c2ccc(Cl)cc2c1-c1ccccc1 [C]  µg/mL           75
2   NCc1[nH]c2cc(Br)c(Cl)cc2c1-c1ccccc1 [D]  µg/mL           75
3  NCc1[nH]c2ccc(Cl)cc2c1-c1ccc(Cl)cc1Cl [E]  µg/mL         37.5

Attention now shifts to the item below.
Entry under review: NCc1[nH]c2ccc(Cl)cc2c1-c1c(F)cccc1F [B] . Reported MIC?
150

* * *

test system: Candida albicans; assay: In vitro Anti-Candida activity, dilutions in Sabouraud's Dextrose Agar (Table III); type: cell-based; conditions: 48 h, strain 1, after 48 hours
readout: MIC (µg/mL)
Provide only the numeric value, understood in µg/mL.

>>> print(df.to_string())
                            input_smiles  test_result
0  NCc1[nH]c2ccc(Cl)cc2c1-c1ccc(Cl)cc1Cl         37.5
1        NCc1[nH]c2ccc(Cl)cc2c1-c1ccccc1           75
2    NCc1[nH]c2cc(Br)c(Cl)cc2c1-c1ccccc1          150
3    NCc1[nH]c2ccc(Cl)cc2c1-c1c(F)cccc1F          150

Attention now shifts to the item below.
Entry under review: `NCc1[nH]c2ccc(Cl)cc2c1-c1ccccc1F` . Reported MIC?
75

* * *

system: Staphylococcus aureus; assay: In vitro antibacterial activity, dilution in Mueller Hinton Agar (Table I); type: cell-based; conditions: pH 7.4, strain Wood, Mueller Hinton Agar pH 7.4
readout: MIC
Answer format reminder: number followed by unit.

In [3]: df
Out[3]:
                            input_smiles           assay_system  test_result
0        NCc1[nH]c2ccc(Cl)cc2c1-c1ccccc1  Staphylococcus aureus    7.5 µg/mL
1    NCc1[nH]c2cc(Br)c(Cl)cc2c1-c1ccccc1  Staphylococcus aureus      3 µg/mL
2  NCc1[nH]c2ccc(Cl)cc2c1-c1ccc(Cl)cc1Cl  Staphylococcus aureus      3 µg/mL
3    NCc1[nH]c2ccc(Cl)cc2c1-c1c(F)cccc1F  Staphylococcus aureus    7.5 µg/mL

Attention now shifts to the item below.
Entry under review: `NCc1[nH]c2ccc(Cl)cc2c1-c1ccccc1F` . Reported MIC?
3 µg/mL

* * *

MIC by entry:
test system: Clostridium novyi; assay: In vitro activity against anaerobes in fluid Thioglycollate medium (Table II); format: cell-based; settings: 72 hrs
Provide only the numeric value, understood in µg/mL.

>>> df
                            input_smiles  readout  test_result
0        NCc1[nH]c2ccc(Cl)cc2c1-c1ccccc1      MIC            3
1  NCc1[nH]c2ccc(Cl)cc2c1-c1ccc(Cl)cc1Cl      MIC         0.75
2    NCc1[nH]c2ccc(Cl)cc2c1-c1c(F)cccc1F      MIC          7.5
3       NCc1[nH]c2ccc(Cl)cc2c1-c1ccccc1F      MIC          7.5

Which measured MIC belongs to `NCc1[nH]c2cc(Br)c(Cl)cc2c1-c1ccccc1` , tested on Clostridium novyi?
0.75
